experimental_system: Nfl (Nucleocapsid full-length) (SARS-CoV-2, UniProt P0DTC9 1-419)
experiment_summary: fluorescence anisotropy; 1 mM Mg2+; Fluorescence anisotropy: 20 mM HEPES pH 7.5, 100 mM NaCl, 1 mM MgCl2, 100 µg/ml BSA, 5 nM RNA, 25 °C, 1 h; one-site fit with Hill slope. SEC conditions not in the material
experimental_setup: protein: recombinant; tags: His6 or His-GST fusion, cleavable (TEV/3C); chain copies: 2; label: 5' 6-FAM; single strand
readout: Kd (nM)
// note: answer is a bare numeric in nM

[in] For UUUUUUUUUUUU (ssRNA) [U12 (12-mer poly-U RNA)] , what is its reported Kd?
[out] 82
